// reported pIC50 per item
molecular target: HIF-2α (Homo sapiens); assay: HIF-2α Luciferase Reporter Assay (serum), HRE-luciferase 786-0 cells in 100% human serum; type: cell-based; settings: 100% human serum, 786-0 reporter cells, overnight incubation; read-out: Serum Potency
Sequence (Q99814 whole entry): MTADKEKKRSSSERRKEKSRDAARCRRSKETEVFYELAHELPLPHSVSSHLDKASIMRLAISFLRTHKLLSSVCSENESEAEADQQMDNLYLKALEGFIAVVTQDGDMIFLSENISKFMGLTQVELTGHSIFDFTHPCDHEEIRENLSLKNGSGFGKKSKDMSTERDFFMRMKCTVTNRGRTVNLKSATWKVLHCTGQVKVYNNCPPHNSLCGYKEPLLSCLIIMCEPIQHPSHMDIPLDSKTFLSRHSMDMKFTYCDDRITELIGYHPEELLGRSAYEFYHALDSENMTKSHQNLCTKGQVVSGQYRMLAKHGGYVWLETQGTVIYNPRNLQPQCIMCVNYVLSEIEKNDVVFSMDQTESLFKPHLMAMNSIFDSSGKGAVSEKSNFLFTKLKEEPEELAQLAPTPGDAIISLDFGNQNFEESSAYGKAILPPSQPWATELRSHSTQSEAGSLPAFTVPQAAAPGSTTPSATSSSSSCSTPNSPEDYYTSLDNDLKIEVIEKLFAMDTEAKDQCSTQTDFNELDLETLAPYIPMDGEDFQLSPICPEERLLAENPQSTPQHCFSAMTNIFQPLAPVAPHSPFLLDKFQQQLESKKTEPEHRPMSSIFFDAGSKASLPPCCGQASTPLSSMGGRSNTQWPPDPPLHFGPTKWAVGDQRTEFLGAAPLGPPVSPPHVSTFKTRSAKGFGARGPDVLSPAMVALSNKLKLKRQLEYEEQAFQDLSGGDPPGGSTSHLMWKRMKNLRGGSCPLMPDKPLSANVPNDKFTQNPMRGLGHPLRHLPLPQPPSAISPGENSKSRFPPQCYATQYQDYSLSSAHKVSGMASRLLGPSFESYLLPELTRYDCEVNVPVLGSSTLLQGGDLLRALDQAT
pIC50: −log10 of the molar value.

Please report the recorded pIC50 for O=S1(=O)CC(Cn2nc(C(F)(F)F)c3c2[C@@H](F)C(F)(F)[C@H]3O)C1 (single isomer, unassigned) [144/145 DIAST-2] .
6.00 to 7.00

Please report the recorded pIC50 for O[C@H]1c2c(C(F)(F)F)nn(CC3CC(F)(F)C3)c2CCC1(F)F .
< 6.00

Please report the recorded pIC50 for OC(CCn1nc(C(F)(F)F)c2c1CCC(F)(F)[C@H]2O)C(F)(F)F (some centres unmarked) .
< 6.00

Please report the recorded pIC50 for O[C@H]1c2c(C(F)(F)F)nn(CC3CC3C(F)(F)F)c2CCC1(F)F (some centres unmarked) .
< 6.00

Please report the recorded pIC50 for O[C@H]1c2c(C(F)(F)F)nn(CCCOC(F)(F)F)c2[C@H](F)CC1(F)F (single isomer, unassigned) [129/130 DIAST-2] .
< 6.00

Please report the recorded pIC50 for O[C@H]1c2c(C(F)(F)F)nn([C@@H]3C[C@@H](F)[C@@H](F)[C@@H](F)C3)c2[C@H](F)C1(F)F (single isomer, unassigned) [146/147 DIAST-1] .
> 7.00

Please report the recorded pIC50 for O[C@H]1c2c(C(F)(F)F)nn(C3CC4(C3)CC(F)(F)C4)c2[C@@H](F)[C@@H]1F (single isomer, unassigned) .
< 6.00

Please report the recorded pIC50 for O[C@H]1c2c(C(F)(F)F)nn([C@@H]3C[C@@H](F)[C@@H](F)[C@@H](F)C3)c2[C@@H](F)C1(F)F (single isomer, unassigned) [146/147 DIAST-2] .
6.00 to 7.00

Please report the recorded pIC50 for O=S1(=O)CC(Cn2nc(C(F)(F)F)c3c2[C@H](F)C(F)(F)[C@H]3O)C1 (single isomer, unassigned) [144/145 DIAST-1] .
< 6.00

Please report the recorded pIC50 for C[C@H](OC(F)F)[C@H]1C[C@H](n2nc(C(F)(F)F)c3c2CC(F)(F)[C@H]3O)C1 .
6.00 to 7.00

Please report the recorded pIC50 for O[C@H]1c2c(C(F)(F)F)nn(-c3ccc(F)cc3)c2CC1(F)F .
< 6.00

Please report the recorded pIC50 for O[C@H]1c2c(C(F)(F)F)nn([C@H]3CCC(F)(F)[C@H](F)C3)c2CC1(F)F .
< 6.00

Please report the recorded pIC50 for O[C@H]1c2c(C(F)(F)F)nn(CCSC(F)F)c2CCC1(F)F .
6.00 to 7.00

Please report the recorded pIC50 for O[C@H]1c2c(C(F)(F)F)nn(C3CC4(C3)CC(F)(F)C4)c2C[C@H]1F .
6.00 to 7.00

Please report the recorded pIC50 for O[C@H]1c2c(C(F)(F)F)nn([C@H]3CC[C@H](F)[C@H](F)C3)c2[C@@H](F)C1(F)F .
> 7.00
